# TESTED_TARGET: Induced myeloid leukemia cell differentiation protein Mcl-1 (Homo sapiens)
# Sequence (Q07820 whole entry): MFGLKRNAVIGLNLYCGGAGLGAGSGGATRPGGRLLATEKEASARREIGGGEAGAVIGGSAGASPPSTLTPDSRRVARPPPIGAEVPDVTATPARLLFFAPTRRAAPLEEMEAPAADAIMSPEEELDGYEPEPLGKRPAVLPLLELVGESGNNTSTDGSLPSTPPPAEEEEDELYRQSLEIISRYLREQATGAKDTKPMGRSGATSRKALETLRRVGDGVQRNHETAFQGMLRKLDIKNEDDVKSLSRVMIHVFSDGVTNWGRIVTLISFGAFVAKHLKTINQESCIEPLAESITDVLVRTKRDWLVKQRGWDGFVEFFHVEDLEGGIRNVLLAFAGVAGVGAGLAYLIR
# PROCEDURE_DETAILS: Binding affinity to Mc1-1 (unknown origin) by fluorescence polarization competition assay
Hi all, reminder that labels come from Ki, split as lower range: < 0.2 µM; middle range: ≥ 0.2 µM and < 0.3 µM; upper range: ≥ 0.3 µM

{"STRUCTURE_SMILES_STRING": "O=C(O)c1ccccc1-c1cccc2c1c(-c1cccc(Cl)c1)cn2CCOc1cccc2ccccc12", "CLASS_NAME": "upper range"}
{"STRUCTURE_SMILES_STRING": "O=C(O)c1ccc(Cl)cc1-c1cccc2c1ccn2CCCOc1cccc2ccccc12", "CLASS_NAME": "middle range"}
{"STRUCTURE_SMILES_STRING": "CC1(C)CCC(CN2CCN(c3ccc(C(=O)NS(=O)(=O)c4ccc(NCC5CCOCC5)c([N+](=O)[O-])c4)c(Oc4cnc5[nH]ccc5c4)c3)CC2)=C(c2ccc(Cl)cc2)C1", "CLASS_NAME": "upper range"}
{"STRUCTURE_SMILES_STRING": "CC(C)c1ccccc1-c1cn(CCOc2cccc3ccccc23)c2cccc(-c3ccccc3C(=O)O)c12", "CLASS_NAME": "lower range"}
{"STRUCTURE_SMILES_STRING": "Cc1ccc(-c2cn(Cc3cccc4ccccc34)c3cccc(-c4ccccc4C(=O)O)c23)cc1", "CLASS_NAME": "middle range"}

Hello team, could you let me know which band the following molecule falls into: COc1ccccc1-c1cn(CCOc2cccc3ccccc23)c2cccc(-c3ccccc3C(=O)O)c12 lower range

Hello team, could you let me know which band the following molecule falls into: Cc1ccccc1-c1cn(Cc2cccc3ccccc23)c2cccc(-c3ccccc3C(=O)O)c12 lower range

Hello team, could you let me know which band the following molecule falls into: Cc1cccc(-c2cn(CCOc3cccc4ccccc34)c3cccc(-c4ccccc4C(=O)O)c23)c1C upper range

Hello team, could you let me know which band the following molecule falls into: O=C(O)c1ccccc1-c1cccc2c1c(-c1cccc(C(F)(F)F)c1)cn2Cc1cccc2ccccc12 lower range

Hello team, could you let me know which band the following molecule falls into: Cc1cccc(-c2cn(Cc3cccc4ccccc34)c3cccc(-c4ccccc4C(=O)O)c23)c1 upper range

Hello team, could you let me know which band the following molecule falls into: Cc1ccccc1-c1cn(CCOc2cccc3ccccc23)c2cccc(-c3ccccc3C(=O)O)c12 lower range

Hello team, could you let me know which band the following molecule falls into: CCc1ccccc1-c1cn(CCOc2cccc3ccccc23)c2cccc(-c3ccccc3C(=O)O)c12 middle range

Hello team, could you let me know which band the following molecule falls into: Cc1cccc(-c2cn(CCOc3cccc4ccccc34)c3cccc(-c4ccccc4C(=O)O)c23)c1 upper range

Hello team, could you let me know which band the following molecule falls into: COc1cccc(-c2cn(Cc3cccc4ccccc34)c3cccc(-c4ccccc4C(=O)O)c23)c1 middle range

Hello team, could you let me know which band the following molecule falls into: COc1ccccc1-c1cn(Cc2cccc3ccccc23)c2cccc(-c3ccccc3C(=O)O)c12 middle range

Hello team, could you let me know which band the following molecule falls into: O=C(O)c1ccccc1-c1cccc2c1c(-c1cccc(C(F)(F)F)c1)cn2CCOc1cccc2ccccc12 lower range

Hello team, could you let me know which band the following molecule falls into: Cc1ccc(-c2cn(CCOc3cccc4ccccc34)c3cccc(-c4ccccc4C(=O)O)c23)cc1 middle range
